- TGT: CD73 expressed on the MDA-MB-231 cell surface (Homo sapiens)
- Construct: host or cells: MDA-MB-231
- ASSAY_COMMENT: Cell-based CD73 enzyme inhibition assay on MDA-MB-231 cells
- SETUP_CONDITIONS: AMP 100 μM, 3 h (FIG. 2)
OUTCOME_MEASURE: pIC50
Answers are plain numbers, as −log10 of the molar value.

Measured pIC50 of C#CCOCCOCCOCCOCCOC1CCC2(CC1)CN(c1nc(Cl)nc3c1cnn3[C@@H]1O[C@H](COCP(=O)(O)O)[C@@H](O)[C@H]1O)C2 : 7.38

----------
- TGT: CD73 expressed on the MDA-MB-231 cell surface (Homo sapiens, UniProt P21589)
- Construct: host or cells: MDA-MB-231
- Sequence (P21589 27-549): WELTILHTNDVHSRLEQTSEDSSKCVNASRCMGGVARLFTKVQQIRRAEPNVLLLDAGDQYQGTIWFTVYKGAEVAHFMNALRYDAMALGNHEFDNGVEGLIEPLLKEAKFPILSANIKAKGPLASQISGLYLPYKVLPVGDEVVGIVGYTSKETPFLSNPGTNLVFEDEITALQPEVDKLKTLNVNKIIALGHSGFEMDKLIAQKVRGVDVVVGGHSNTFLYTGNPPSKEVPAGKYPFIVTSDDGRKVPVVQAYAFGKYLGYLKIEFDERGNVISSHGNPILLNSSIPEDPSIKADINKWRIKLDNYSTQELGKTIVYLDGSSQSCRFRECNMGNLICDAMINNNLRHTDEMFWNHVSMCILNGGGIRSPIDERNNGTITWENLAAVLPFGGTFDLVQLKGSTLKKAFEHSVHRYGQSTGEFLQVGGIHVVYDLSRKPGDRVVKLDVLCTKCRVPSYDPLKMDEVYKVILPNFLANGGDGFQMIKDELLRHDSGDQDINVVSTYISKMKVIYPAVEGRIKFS
- ASSAY_COMMENT: Cell-based CD73 enzyme inhibition assay using MDA-MB-231 cells (CellTiter-Glo)
- SETUP_CONDITIONS: additional assay on linker length; Table 30 experiment
OUTCOME_MEASURE: IC50
Form entry: enter the amount, then its unit.

Measured IC50 of O=P(O)(O)COC[C@H]1O[C@@H](n2ncc3c(N4CC5(CCc6ccccc65)C4)nc(Cl)nc32)[C@H](O)[C@@H]1O : 4 nM

----------
Can you tell me IC50 for the items I'm about to list?
- TGT: CD73 on human PBMCs (Homo sapiens, UniProt P21589)
- Construct: 72400 (T cells); host or cells: human PBMCs / human T cells
- Sequence (P21589 27-549): as above
- ASSAY_COMMENT: CD73 enzyme inhibition assay with human PBMCs (PiColorLock)
- Format: cell-based
- SETUP_CONDITIONS: three unique PBMC donors, AMP 100 μM, 24 h; read-out: 24 h median IC50 [nM] (range)
Numbers only, in nM.

{"columns": ["MOLECULE", "TGT", "OUTPUT_UNIT", "IC50"],
 "data": [
  ["O=P(O)(O)COC[C@H]1O[C@@H](n2ncc3c(N4CC5(CCc6ccccc65)C4)nc(Cl)nc32)[C@H](O)[C@@H]1O [SHR170008]", "CD73 on human PBMCs (Homo sapiens, UniProt P21589)", "nM", 2.36]
]}

Below: the item to evaluate.
Here COC[C@](CO)(OC[C@H]1O[C@@H](n2ncc3c(NC4CCCC4)nc(Cl)nc32)[C@H](O)[C@@H]1O)P(=O)(O)O [OP-5244] was tested on CD73 on human PBMCs (Homo sapiens, UniProt P21589), and its IC50 came to 0.15

----------
- TGT: CD73 on human PBMCs (Homo sapiens, UniProt P21589)
- Construct: 72400 (T cells); host or cells: human PBMCs / human T cells
- ASSAY_COMMENT: CD73 enzyme inhibition assay with human PBMCs (PiColorLock)
- Format: cell-based
- SETUP_CONDITIONS: read-out: 3 h IC50; human PBMCs, AMP 100 μM, 3 h (Table 18)
OUTCOME_MEASURE: IC50 (nM)
Give bare numbers, in nM.

Here COC[C@](CO)(OC[C@H]1O[C@@H](n2ncc3c(NC4CCCC4)nc(Cl)nc32)[C@H](O)[C@@H]1O)P(=O)(O)O was tested on CD73 on human PBMCs (Homo sapiens, UniProt P21589), and its IC50 came to 0.011

----------
- TGT: CD73 on EMT6 mouse mammary carcinoma cells (Mus musculus)
- Construct: host or cells: EMT6
- ASSAY_COMMENT: CD73 enzyme inhibition assay with mouse EMT6 cells (PiColorLock)
- Format: cell-based
- SETUP_CONDITIONS: read-out: 3 h IC50; mouse EMT6 cancer cells, AMP 100 μM, 3 h
OUTCOME_MEASURE: IC50 (nM)
Give bare numbers, in nM.

Measured IC50 of COC[C@](CO)(OC[C@H]1O[C@@H](n2ncc3c(NC4CCCC4)nc(Cl)nc32)[C@H](O)[C@@H]1O)P(=O)(O)O [OP-5244] : 0.28

----------
- TGT: CD73 on 4T1 mouse cells (Mus musculus)
- Construct: host or cells: 4T1
- Sequence (Q61503 29-551): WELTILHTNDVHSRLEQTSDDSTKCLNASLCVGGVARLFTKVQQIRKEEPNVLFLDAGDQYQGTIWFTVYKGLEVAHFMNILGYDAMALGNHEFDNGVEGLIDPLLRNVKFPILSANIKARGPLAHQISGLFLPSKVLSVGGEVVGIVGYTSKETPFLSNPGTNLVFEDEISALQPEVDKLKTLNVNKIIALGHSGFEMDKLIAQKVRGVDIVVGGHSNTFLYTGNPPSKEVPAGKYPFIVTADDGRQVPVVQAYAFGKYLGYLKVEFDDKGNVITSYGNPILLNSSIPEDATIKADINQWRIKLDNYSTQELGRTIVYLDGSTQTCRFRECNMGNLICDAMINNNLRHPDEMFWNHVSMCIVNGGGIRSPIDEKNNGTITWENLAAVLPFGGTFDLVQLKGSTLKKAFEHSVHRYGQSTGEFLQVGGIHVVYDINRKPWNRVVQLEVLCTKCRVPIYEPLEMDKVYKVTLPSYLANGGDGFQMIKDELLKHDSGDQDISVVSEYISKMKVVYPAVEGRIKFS
- ASSAY_COMMENT: CD73 enzyme inhibition assay with mouse 4T1 cells (PiColorLock)
- Format: cell-based
- SETUP_CONDITIONS: read-out: 3 h IC50; 4T1 cancer cells, AMP 100 μM, 3 h
OUTCOME_MEASURE: pIC50
Answers are plain numbers, as −log10 of the molar value.

I'm hoping you can list pIC50 for every compound here, please.
1. O=P(O)(O)COC[C@H]1O[C@@H](n2ncc3c(N4CC5(CCc6ccccc65)C4)nc(Cl)nc32)[C@H](O)[C@@H]1O [SHR170008]
2. COC[C@](CO)(OC[C@H]1O[C@@H](n2ncc3c(NC4CCCC4)nc(Cl)nc32)[C@H](O)[C@@H]1O)P(=O)(O)O [OP-5244]

1: 8.09; 2: 8.78

----------
- TGT: CD73 on EMT6 mouse mammary carcinoma cells (Mus musculus, UniProt Q61503)
- Construct: host or cells: EMT6
- Sequence (Q61503 29-551): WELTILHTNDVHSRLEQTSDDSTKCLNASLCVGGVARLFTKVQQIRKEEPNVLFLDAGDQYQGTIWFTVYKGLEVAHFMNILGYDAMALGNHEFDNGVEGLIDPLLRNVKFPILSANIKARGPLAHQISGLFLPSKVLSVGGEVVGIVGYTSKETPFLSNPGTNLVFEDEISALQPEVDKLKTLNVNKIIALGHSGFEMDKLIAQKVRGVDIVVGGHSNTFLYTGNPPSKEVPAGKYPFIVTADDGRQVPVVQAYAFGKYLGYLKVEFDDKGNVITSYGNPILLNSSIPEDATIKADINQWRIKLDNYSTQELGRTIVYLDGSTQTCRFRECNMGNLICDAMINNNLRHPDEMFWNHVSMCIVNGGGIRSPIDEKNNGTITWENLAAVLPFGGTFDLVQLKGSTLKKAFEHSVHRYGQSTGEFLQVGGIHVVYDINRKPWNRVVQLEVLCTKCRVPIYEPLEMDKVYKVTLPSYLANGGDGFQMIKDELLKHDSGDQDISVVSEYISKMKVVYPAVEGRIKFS
- ASSAY_COMMENT: CD73 enzyme inhibition assay with mouse EMT6 cells (PiColorLock)
- Format: cell-based
- SETUP_CONDITIONS: mouse EMT6 cancer cells, AMP 100 μM, 24 h; read-out: 24 h IC50
OUTCOME_MEASURE: IC50 (nM)
One number for each entry, in nM.

{"columns": ["SMILES_RECORD", "OUTPUT_UNIT", "READOUT_VALUE"],
 "data": [
  ["C[C@H](Nc1cc(Cl)nc2c1cnn2[C@@H]1O[C@H](COP(=O)(O)CP(=O)(O)O)[C@@H](O)[C@H]1O)c1ccccc1F", "nM", 2.29]
]}

Below: the item to evaluate.
Measured IC50 of COC[C@](CO)(OC[C@H]1O[C@@H](n2ncc3c(NC4CCCC4)nc(Cl)nc32)[C@H](O)[C@@H]1O)P(=O)(O)O : 0.51
